system: Saccharomyces cerevisiae; assay: protein stability index of tFT-peptide fusion (C-terminal peptide) (PSI (0-1 scale)); higher = more stable (slower turnover); details: genetic background: wild type; temperature: 30 C
Observable: protein stability index
Output: the number by itself.

The following sequences have reported results that may help.
ASSVLLIAQLQS | 0.619
GGFESRVVGGVG | 0.526

Q: Give its protein stability index value. Item: PVRDGFSLCFVL
Result: 0.761

Q: Which protein stability index value belongs to PRCPVNTHPLAR ?
Result: 0.702

---

system: Saccharomyces cerevisiae; test: protein stability index of tFT-peptide fusion (C-terminal peptide) (PSI (0-1 scale)); higher = more stable (slower turnover); conditions: genetic background: wild type; temperature: 30 C
Observable: protein stability index
In your answer, state the number alone without any accompanying words.

Answered examples (10):
IADASSLSWNMK [LEM3 C-terminal 12 aa] | 0.719
PSTLIITTLLFK [YJR023C C-terminal 12 aa] | 0.61
MDNKQQLSSGRT [SNA3 C-terminal 12 aa] | 0.686
SRKHTTRSGGRW [HOS3 C-terminal 12 aa] | 0.655
TVDYIASNPDAN [ACP1 C-terminal 12 aa] | 0.736
IKGKFYVKILGN [YGR115C C-terminal 12 aa] | 0.648
NNNNNNNDDDDK [CTK1 C-terminal 12 aa] | 0.691
AVKYLYRQIVRN [EFM2 C-terminal 12 aa] | 0.621
QLSRNEESLMKK [COS5 C-terminal 12 aa] | 0.752
SQTKSKQTLFTI [YPR142C C-terminal 12 aa] | 0.695

Q: Given DRIAAQTLEEDE [RPS19A C-terminal 12 aa] , state its recorded protein stability index.
Result: 0.693

Q: Endpoint output: protein stability index of WGSIGQKLRRSA [YOL118C C-terminal 12 aa] . Value?
Result: 0.728

Q: Endpoint output: protein stability index of AQLVSLVRNQKH [YLR198C C-terminal 12 aa] . Value?
Result: 0.7

Q: Dear colleague, I am looking for the recorded protein stability index of the following sequence: KLLGIFPNLSNF [YLL054C C-terminal 12 aa]
Result: 0.358

Q: Give its protein stability index value. Item: SLVKTHNSSLCK [IAI11 C-terminal 12 aa]
Result: 0.689

Q: Entry GVFSKSSAELRF [YDL016C C-terminal 12 aa] has what protein stability index?
Result: 0.706

Q: Tell me the measured protein stability index of ALPTYTMEYLDI [UTP8 C-terminal 12 aa] , please.
Result: 0.698

Q: # query: protein stability index of entry RKQAHELRPKSE [SPO7 C-terminal 12 aa]
Result: 0.79

Q: Any idea what protein stability index was measured for DFFREVKYGKKQ [ODC1 C-terminal 12 aa] ?
Result: 0.723

Q: // protein stability index lookup, key: CFWRMICSEPKL [YAR064W C-terminal 12 aa]
Result: 0.623

Q: So what's the measured protein stability index for this one? ARAAAEYDCTVA [ATR1 C-terminal 12 aa]
Result: 0.7

---

tested on: Saccharomyces cerevisiae; test: protein stability index of tFT-peptide fusion (C-terminal peptide) (PSI (0-1 scale)); higher = more stable (slower turnover); conditions: genetic background: das1 deletion; temperature: 30 C
Observable: protein stability index
Please respond with just the number, no unit label.

Here's what some known entries look like.
FCASCLVCFIYL | 0.426
YLFPHVRPKFPG | 0.658
CFRRPLLRVVLT | 0.451

Q: Look up protein stability index for this sequence: FFRFNCVFWLFL
Result: 0.443

Q: Sample DVHPLFYCIPVY — what was its protein stability index?
Result: 0.101

Q: For the sequence SVLLVFRFFWEL , what protein stability index is on record?
Result: 0.397

Q: Entry LRFFLPFLLSLP : reported protein stability index = ?
Result: 0.55

Q: Consider the sequence shown here: LLLCVVLVSVFG What is its recorded protein stability index?
Result: 0.122

Q: protein stability index for SFVGCWFVLLVR ?
Result: 0.138

Q: So what's the measured protein stability index for this one? VWYSCWSFLVLF
Result: 0.416

---

system: Saccharomyces cerevisiae; test: protein stability index of tFT-peptide fusion (C-terminal peptide) (PSI (0-1 scale)); higher = more stable (slower turnover); conditions: genetic background: cdc34-1; temperature: 37 C
Tick Met if protein stability index is 0.4 or greater. Tick Not met if protein stability index is less than 0.4.

Completed entries (count: 3):
PLPSRAPVQFLL | Met
FWCVFVFFVCVG | Not met
LLLFTPFYLLLR | Not met

Consider the additional sequence presented here.
Q: Exam item: decide whether the reported protein stability index for AYACSILRCKSS is at least 0.4.
Result: Met

---

# protein stability index values compiled below
system: Saccharomyces cerevisiae; assay: protein stability index of tFT-peptide fusion (C-terminal peptide) (PSI (0-1 scale)); higher = more stable (slower turnover); conditions: genetic background: das1 deletion; temperature: 37 C
Would you mind answering with just the numeric figure?

Recorded protein stability index, per entry:
NENQIKVIMLLV | 0.555
CFCPILFPRCLA | 0.666
FCASCLVCFIYL | 0.521
YDVQIEFCVVEV | 0.569

Q: Look up protein stability index: YSRFALRPQLLV
Result: 0.62

Q: What does the data say about its protein stability index? Entry: LRFFLPFLLSLP
Result: 0.659

---

test system: Saccharomyces cerevisiae; experiment: protein stability index of tFT-peptide fusion (C-terminal peptide) (PSI (0-1 scale)); higher = more stable (slower turnover); conditions: genetic background: wild type; temperature: 30 C
Heads up, the class ranges for protein stability index are low bin (below 0.6), mid bin (0.6 to below 0.7), high bin (0.7 or more)

Q: Looking at CKIDGGIIRTCR , which class would you pick?
Result: mid bin

---

Listing of recorded protein stability index by entry.
test system: Saccharomyces cerevisiae; assay: protein stability index of tFT-peptide fusion in deletion strain of DOA10 (PSI (0-1 scale)); higher = more stable (slower turnover)
// return a plain number; no unit text

AITLPMCPLKLR | 0.668

Q: What value of protein stability index has been reported for the following sequence? CLVSLPISLFFR
Result: 0.656

Q: Reported protein stability index, sequence KLVSLPILLFFR : ____
Result: 0.612

---

In this section, each of the sequences is paired with its reported protein stability index.
test system: Saccharomyces cerevisiae; assay: protein stability index of tFT-peptide fusion (C-terminal peptide) (PSI (0-1 scale)); higher = more stable (slower turnover); settings: genetic background: wild type; temperature: 30 C

Q: What does the data say about its protein stability index? Entry: KSEKTYTYQVIQ
Result: 0.37

Q: Query (sequence): LFGFLCVVMCCG ; field requested: protein stability index
Result: 0.442

Q: What protein stability index value was documented for this sequence, LFFVCSGVVFSF ?
Result: 0.384

Q: Return reported protein stability index; argument: LSVYFSLSLCVS
Result: 0.399

Q: Name the reported protein stability index value associated with the sequence CLLGMKSRTILV
Result: 0.287

Q: Bench note: what protein stability index did LLLFTPFYLLLR show?
Result: 0.188

Q: Given the entry GGSHVWKFYRNF , report its measured protein stability index.
Result: 0.285

Q: Can you share its protein stability index? I mean this sequence: VVGRWGFVVECW
Result: 0.249

Q: What value of protein stability index has been reported for the following sequence? HDLRRRVVSVMV
Result: 0.297

Q: Would you kindly share the measured protein stability index for CGLLWFYSFFLF ?
Result: 0.316

---

Listed here: items and their measured protein stability index.
tested on: Saccharomyces cerevisiae; assay: protein stability index of tFT-peptide fusion (C-terminal peptide) (PSI (0-1 scale)); higher = more stable (slower turnover); conditions: genetic background: wild type; temperature: 30 C
When you answer, write just the number.

SSYGPAKSLGCA | 0.684

Q: Form field: reported protein stability index of RRLRWQNKIIGI
Result: 0.868

Q: Give the measured protein stability index of YRGRGSDQYAGT .
Result: 0.624

Q: Fill in: protein stability index of AHPPPPPPPPAP is ___
Result: 0.677

Q: Quick one: protein stability index of PPPPLPRAPFSP ?
Result: 0.661

Q: Entry SSAPTIVIWRFS : reported protein stability index = ?
Result: 0.495

---

system: Saccharomyces cerevisiae; assay: protein stability index of tFT-peptide fusion (C-terminal peptide) (PSI (0-1 scale)); higher = more stable (slower turnover); settings: genetic background: cdc34-1; temperature: 37 C
Readings of protein stability index for the listed sequences
I'd appreciate a reply containing only the number, no unit.

Please review the entries below; each comes with its answer.
PPPPPLAIPHPT | 0.655
AVTMSYQCGIFI | 0.646
WVVVGWVGVGFR | 0.508
LRLLSLIPPLSC | 0.494
ASFVCWSVCALG | 0.508
CAGRQGRERGHT | 0.694
LCGYVGVVVCLV | 0.282
FPPFALLLIIND | 0.475

Q: Param readout= protein stability index; system= Saccharomyces cerevisiae; entry= VFLFSLCIRLSR ; returns value.
Result: 0.122

Q: Write down the reported protein stability index of LIVCVKAITIVS , test system: Saccharomyces cerevisiae.
Result: 0.0266

Q: Param readout = protein stability index; param system = Saccharomyces cerevisiae; param query = LSIGCRCLWGWF ; response: value
Result: 0.718

Q: So what protein stability index did FVVGFVCSMVWG get with Saccharomyces cerevisiae?
Result: 0.0975

Q: Test system Saccharomyces cerevisiae; read-out protein stability index; what value for KVALWRRGVLAA ?
Result: 0.363

Q: # get_value(readout= protein stability index, system= Saccharomyces cerevisiae) for CVFVRCVDCMSG
Result: 0.553

Q: Form: Entry = GSRRYYFTWVYQ | System = Saccharomyces cerevisiae | protein stability index = ____
Result: 0.454

Q: Please state recorded protein stability index (tested on Saccharomyces cerevisiae) of VGVVLWWVVLMV
Result: 0.118

Q: API: value(readout= protein stability index, system= Saccharomyces cerevisiae, query= VFFLFAVCSVLV )
Result: 0.0858

Q: For the record AFVVYSGSHGLV , what value of protein stability index is listed for Saccharomyces cerevisiae?
Result: 0.686

Q: Please state recorded protein stability index (tested on Saccharomyces cerevisiae) of CFCPILFPRCLA
Result: 0.476

Q: Kindly state the measured protein stability index obtained for YPFIPLIVCGFF with Saccharomyces cerevisiae.
Result: 0.401

Q: Item FPFFLLAAPFLA with Saccharomyces cerevisiae - protein stability index?
Result: 0.564

Q: Under Saccharomyces cerevisiae: protein stability index value of VLVLSFLYRMVK ?
Result: 0.353

Q: Report protein stability index for ASGFLVIPLWVF tested on Saccharomyces cerevisiae.
Result: 0.41

Q: What reported protein stability index corresponds to KSEKTYTYQVIQ on Saccharomyces cerevisiae?
Result: 0.682

Q: Record PSLAASFWRVVG : what is its protein stability index with Saccharomyces cerevisiae?
Result: 0.595

Q: For Saccharomyces cerevisiae, provide protein stability index of SPLHGFLFLVLL please.
Result: 0.395
